Hey, just so you know, these numbers are from the RNAGym collection of RNA variant scans (doi:10.7554/elife.80360).

Entries annotated with measured self-cleavage
B1: CPEB3 Ribozyme (parent)
chain: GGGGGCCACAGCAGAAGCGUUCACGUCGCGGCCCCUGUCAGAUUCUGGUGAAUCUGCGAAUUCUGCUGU

Variants of: B1
Assay: self-cleavage, relative activity (ratio to wild type); higher = more cleavage; co-transcriptional

Illustrative cases are given below, each with its answer.
{"Variant Identifier": "A8G U43C", "self-cleavage": 0.758}
{"Variant Identifier": "U36G U69C", "self-cleavage": 0.493}
{"Variant Identifier": "A42U C54U", "self-cleavage": 0.81}
{"Variant Identifier": "G28U G31A", "self-cleavage": 0.24}
{"Variant Identifier": "G4U C29U", "self-cleavage": 0.192}
{"Variant Identifier": "A8U G25U", "self-cleavage": 0.0965}
{"Variant Identifier": "U36A G37A", "self-cleavage": 0.213}
{"Variant Identifier": "A8G A16G", "self-cleavage": 0.458}
{"Variant Identifier": "C29A G41A", "self-cleavage": 0.215}
{"Variant Identifier": "U46A U53A", "self-cleavage": 0.989}

What does the data say about its self-cleavage? Entry: A52G G58C
0.972

What does the data say about its self-cleavage? Entry: C9G U67A
0.959

What does the data say about its self-cleavage? Entry: G2C G5C
0.0267

What does the data say about its self-cleavage? Entry: U55C
0.937

What does the data say about its self-cleavage? Entry: A40U A60G
0.47

What does the data say about its self-cleavage? Entry: G5U C33A
0.0802

What does the data say about its self-cleavage? Entry: G19C G25A
0.101

What does the data say about its self-cleavage? Entry: G28A U64G
0.205

What does the data say about its self-cleavage? Entry: U46G U67C
0.979

What does the data say about its self-cleavage? Entry: A13C C45U
0.876

What does the data say about its self-cleavage? Entry: G28U G37A
0.206

What does the data say about its self-cleavage? Entry: C6U A15U
0.698
